Tested on: Candida glabrata 20/I
ASSAY INFO: In vitro antifungal susceptibility, broth microdilution
Format: cell-based
CONDITION NOTES: Nakaseomyces glabratus, 24 h and 48 h, only one value presented (inactive), read-out: MIC (IC80) CG
Entries and their measured MIC follow.

Below are worked cases with known answers.
1) S=C(N/N=C/c1ccc(Br)cc1)Nc1ccccc1 [Compound 3o]
> 500 µM
2) CCNC(=S)N/N=C/c1cccc(Cl)c1Cl [Compound 3d]
> 500 µM
3) CNC(=S)NN=Cc1ccc2ccccc2n1 [Compound 4a]
> 500 µM
4) CNC(=S)NN=Cc1ccc2cccc(O)c2n1 [Compound 4e]
> 125 µM

Any idea what its MIC is? The compound is NC(=S)N/N=C/c1ccc(Cl)c(Cl)c1 [Compound 3f] > 500 µM

Any idea what its MIC is? The compound is S=C(N/N=C/c1ccc(Cl)c(Cl)c1)Nc1ccccc1 [Compound 3j] > 125 µM

Any idea what its MIC is? The compound is CCNC(=S)N/N=C/c1ccc(Cl)c(Cl)c1 [Compound 3i] > 500 µM

Any idea what its MIC is? The compound is NC(=S)N/N=C/c1cccc(Cl)c1Cl [Compound 3a] > 125 µM

Any idea what its MIC is? The compound is CCNC(=S)N/N=C/c1ccc(Br)cc1 [Compound 3n] > 500 µM

Any idea what its MIC is? The compound is CNC(=S)N/N=C/c1ccc(Cl)c(Cl)c1 [Compound 3g] > 125 µM

Any idea what its MIC is? The compound is CN(C)C(=S)N/N=C/c1cccc(Cl)c1Cl [Compound 3c] > 125 µM
